# ASSAY NAME: Dynamic light scattering of lipid nanoparticles (size, PDI)
# Type: physicochemical
# RUN CONDITIONS: LNP with cationic lipid CL-D
Give PDI for every item shown.
// no unit, no text: just the number

Noted for CCCCCCCCC(CCCCC)COC(=O)CCC(=O)OCC(COP(=O)(O)OCCN(C)C)OC(=O)CCC(=O)OCC(CCCCC)CCCCCCCC (stereo not shown) : its PDI reads 0.129

// CCCCCCCCC(CCCCCCCC)OC(=O)CCCCCCC(=O)OCC(COP(=O)(O)OCCN(C)C)OC(=O)CCCCCCC(=O)OC(CCCCCCCC)CCCCCCCC (stereo not shown) : PDI value = 0.094

The measured PDI associated with CCCCCCCCOC(=O)CCCCCCCC(=O)OC(COC(=O)CCCCCCC(=O)OC(CCCCCCCC)CCCCCCCC)COP(=O)(O)OCCN(C)C (stereo not shown) reads 0.121

Measured PDI, CCCCCCCCC(CCCCCCCC)OC(=O)CCCCCCC(=O)OCC(COP(=O)(O)OCCN)OC(=O)CCCCCCC(=O)OC(CCCCCCCC)CCCCCCCC (stereo not shown) : 0.063

response.value for CC(C)CCCCOC(=O)CCCCCCC(=O)OCC(COP(=O)(O)OCCN)OC(=O)CCCCCCC(=O)OCCCCC(C)C (stereo not shown) (field: PDI) = 0.064

Sure, the documented PDI for CCCCCCCCOC(=O)CCCCCCCC(=O)OCC(COP(=O)(O)OCCN(C)C)OC(=O)CCCCCCCC(=O)OCCCCCCCC (stereo not shown) is 0.089

Value of measured PDI for the entry CC(C)CCCCOC(=O)CCCCCCC(=O)OCC(COP(=O)(O)OCCN(C)C)OC(=O)CCCCCCC(=O)OCCCCC(C)C (stereo not shown) : 0.061

Every entry's value here was drawn from patent US20260224688A1.
